Test system: IGROV-1
TEST_NAME: NCI tumour cell line growth inhibition, 48 h
Active and inactive are the calls of the source. Rule as the data show it: active = GI50 up to about 1.1 µM and inactive = higher.
RECORDED_METRIC: GI50

O=C(O)c1ccccc1NS(=O)(=O)c1ccc(Cl)cc1: > 100 µM (inactive)

// next entry
Measured GI50, COc1ccc(C2Oc3cc(OC)c(O)c(C)c3[C@H]2C)cc1 (some centres not stated) : > 100 µM (inactive)

====

System: Hs-578T
TEST_NAME: NCI tumour cell line growth inhibition, 48 h
Activity calls are given as the source filed them. No stated cut-off is given here; in the data, active = GI50 up to about 1.1 µM and inactive = higher.
RECORDED_METRIC: GI50

Result for `COc1cc2ccc(=O)oc2cc1O` , tested on Hs-578T, GI50: > 100 µM (inactive)

Form field, GI50 with Hs-578T, item `N#Cc1sc2nc3ccccc3n2c1N` : 36.2 µM (inactive)

Form field GI50 for item Cc1[nH]c(=O)nc(S)c1C(=O)NC1C2CCCCC2NC2CCCCC21 (stereo unspecified) on Hs-578T: 23.4 µM (inactive)

Simply: `N#C/C(=C\c1ccc(F)cc1)c1nc2ccccc2c(=O)[nH]1` , Hs-578T, GI50 = 79.6 µM (inactive)

Bench note, Hs-578T: entry `Nc1n2nc(-c3ccccc3)sc2n[n+]1CC(=O)c1ccccc1` , its GI50 = 47.6 µM (inactive)

Record Cc1cn(C2CC(N=[N+]=[N-])C(CO[Si](C)(C)C(C)(C)C)O2)c(=O)[nH]c1=O (stereo unspecified) / Hs-578T, GI50 recorded as 17.6 µM (inactive)
